# TESTED_SYSTEM: human PAD4 (Homo sapiens, UniProt Q9UM07)
# Construct: human PAD4 (NM_012387), A2-P663, was PCR amplified; His-SUMO (N, cleaved yes)
# Sequence (Q9UM07 2-663): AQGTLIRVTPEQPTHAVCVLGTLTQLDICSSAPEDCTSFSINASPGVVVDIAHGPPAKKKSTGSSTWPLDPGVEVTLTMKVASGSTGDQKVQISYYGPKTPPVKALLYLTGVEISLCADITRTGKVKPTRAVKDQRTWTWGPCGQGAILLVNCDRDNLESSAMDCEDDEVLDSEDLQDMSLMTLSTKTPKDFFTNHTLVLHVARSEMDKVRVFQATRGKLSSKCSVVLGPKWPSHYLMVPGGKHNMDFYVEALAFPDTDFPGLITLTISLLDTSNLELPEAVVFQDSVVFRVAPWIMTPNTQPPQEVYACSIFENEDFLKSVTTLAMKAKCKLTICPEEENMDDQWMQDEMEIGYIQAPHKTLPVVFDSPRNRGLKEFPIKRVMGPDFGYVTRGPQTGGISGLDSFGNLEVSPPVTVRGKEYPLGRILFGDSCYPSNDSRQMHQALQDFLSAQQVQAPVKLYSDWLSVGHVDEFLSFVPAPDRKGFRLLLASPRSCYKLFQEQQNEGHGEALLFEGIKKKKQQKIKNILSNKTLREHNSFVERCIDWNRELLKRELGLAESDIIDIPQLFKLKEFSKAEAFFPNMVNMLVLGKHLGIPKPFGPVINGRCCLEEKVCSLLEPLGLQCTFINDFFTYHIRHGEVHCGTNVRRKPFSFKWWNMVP
# TEST_DETAILS: In vitro PAD4 BAEE biochemical assay
# CONDITION_LABEL: BAEE substrate 3 mM, 5 nM PAD4, 2 mM calcium chloride; geometric mean of multiple experiments
# Description: In Vitro PAD4 BAEE Biochemical Assay The enzymatic activity of human PAD4 was monitored in a biochemical assay in the presence or absence of compounds using the small peptidyl arginine mimic BAEE (Na-Benzoyl-L-arginine ethyl ester hydrochloride) as substrate. PAD4 activity led to deimination of BAEE and release of ammonia. Levels of ammonia were monitored by using an amine coupling reaction and were indicative of PAD4 enzymatic activity. […]
OBSERVATION_TYPE: IC50 (nM)

For orientation, consider the following solved cases.
MOLECULE	RESULT_UNIT	VAL
COc1cc(C(=O)N2[C@H]3CC[C@@H]2[C@H](N)C3)cc2nc(-c3cc4ccc5nc4n3CCCCCC[C@@H]3CCN(C3=O)[C@@H]5C)n(C)c12	nM	18
COc1cc(C(=O)N2CCC[C@@H](N)C2)cc2nc(-c3cc4ccc5cc4n3CCCCCCC(=O)Nc3ccccc3-5)n(C)c12	nM	458
COc1cc(C(=O)N2CC[C@@H](F)[C@@H](N)C2)cc2nc(-c3cc4ccc5nc4n3CCCCCCC(C)(C)C(=O)N[C@@H]5C)n(C)c12	nM	343
COc1cc(C(=O)N2C[C@H]3CC[C@@H]2[C@@H]3N)cc2nc(-c3cc4ccc5nc4n3CCCCCc3cncc(F)c3C(=O)N[C@@H]5C)n(C)c12	nM	25
COc1cc(C(=O)N2[C@H]3CC[C@@H]2[C@H](N)C3)cc2nc(-c3cc4ccc5cc4n3CCCCCCC(=O)Nc3ccccc3-5)n(C)c12	nM	165

(I) COc1cc(C(=O)N2CCC[C@@H](N)C2)cc2nc(-c3cc4ccc5nc4n3C[C@H]3C[C@H]3COC[C@@H](C)C(=O)N[C@@H]5C)n(C)c12 (single isomer, unassigned)
(II) COc1cc(C(=O)N[C@H]2CNCC[C@@H]2F)cc2nc(-c3cc4ccc5nc4n3CCCCCCC3(CC3)C(=O)N[C@@H]5C)n(C)c12
(III) COc1cc(C(=O)N2[C@H]3CC[C@@H]2[C@H](N)C3)cc2nc(-c3cc4ccc5nc4n3CCCCCCC(=O)N[C@@H]5C)n(C3CC3)c12
Prompt: Sort these molecules on IC50 so the largest reading comes first. Field: ranking. Enter the labels in the order requested.
Response: II, I, III
(II: 221 nM, I: 56 nM, III: 32 nM)

(I) COc1cc(C(=O)N[C@H]2CNCC[C@@H]2F)cc2nc(-c3cc4ccc5nc4n3CCCCCC[C@@H](OC)C(=O)N[C@@H]5C)n(C)c12
(II) CCn1c(-c2cc3ccc4nc3n2CCCCCCC(C)(C)C(=O)N[C@@H]4C)nc2cc(C(=O)N[C@H]3CNCC[C@@H]3F)c(F)cc21
Prompt: Please indicate which item has the smaller measured IC50: I versus II // caller expects the label of the chosen entry
Response: I

(A) COc1cc(C(=O)N2[C@H]3CC[C@@H]2[C@H](N)C3)cc2nc(-c3cc4ccc5nc4n3CC3(CCCCCC(=O)N[C@@H]5C)CC3)n(C)c12
(B) COc1cc(C(=O)N2CCC[C@@H](N)C2)cc2nc(-c3cc4ccc5nc4n3C[C@@H]3C[C@H]3CCCC(C)C(=O)N[C@@H]5C)n(C)c12 (stereo partly drawn)
Prompt: Which of the two items, A and B , has the greater recorded IC50? Write down the label of the entry you select.
Response: B

----------
# TESTED_SYSTEM: human PAD4 (Homo sapiens, UniProt Q9UM07)
# Construct: human PAD4 (NM_012387), A2-P663, was PCR amplified; His-SUMO (N, cleaved yes)
# TEST_DETAILS: In vitro PAD4 BAEE biochemical assay
# CONDITION_LABEL: BAEE substrate 3 mM, 5 nM PAD4, 2 mM calcium chloride; geometric mean of multiple experiments
OBSERVATION_TYPE: IC50 (nM)

(a) C[C@H]1NC(=O)[C@@H]2C[C@H]2CCCC(F)(F)Cn2c(-c3nc4cc(C(=O)N5C[C@H]6CC[C@@H]5[C@@H]6N)cc(F)c4n3C3CC3)cc3ccc1nc32 [Example 646]
(b) COc1cc(C(=O)N2CC[C@@H](CO)[C@H](N)C2)cc2nc(-c3cc4ccc5nc4n3CCCCCCC(C)(C)C(=O)N[C@@H]5C)n(C)c12 [Example 66]
Prompt: Compare reported IC50 values for a and b . Which is lower? API: response body contains the label of the selected item.
Response: a
(a: 22 nM, b: 1160 nM)

----------
# TESTED_SYSTEM: human PAD4 (Homo sapiens)
# Construct: human PAD4 (NM_012387), A2-P663, was PCR amplified; His-SUMO (N, cleaved yes)
# TEST_DETAILS: In vitro PAD4 BAEE biochemical assay
# CONDITION_LABEL: BAEE substrate 3 mM, 5 nM PAD4, 2 mM calcium chloride; geometric mean of multiple experiments
OBSERVATION_TYPE: IC50 (nM)

STRUCTURE_NOTATION	OBSERVATION_TYPE	RESULT_UNIT	VAL
COc1cc(C(=O)N2[C@H]3CC[C@@H]2[C@H](N)C3)cc2nc(-c3cc4ccc5nc4n3CCCCCOCC(=O)N[C@@H]5C)c(C)n12	IC50	nM	18
C[C@H]1NC(=O)[C@@H]2C[C@@]2(F)CCCCCn2c(-c3nc4cc(C(=O)N5C[C@H](N)[C@@H]6CC[C@H]5C6)ccc4n3C3CC3)cc3ccc1nc32	IC50	nM	24

(A) COc1cc(C(=O)N2[C@H]3CC[C@@H]2[C@H](N)C3)cc2nc(-c3cc4ccc5nc4n3CCCCC[C@H](OC)C(C)(C)C(=O)N[C@@H]5C)n(C)c12
(B) COc1cc(C(=O)N[C@H]2CNCC[C@@H]2F)cc2nc(-c3cc4ccc5nc4n3CCCCCc3cccc(C)c3C(=O)N[C@@H]5C)n(C)c12
Prompt: // pick min by IC50: A , B Label of pick, please.
Response: A
(A: 49 nM, B: 110 nM)

(A) COc1cc(C(=O)N2C[C@H](N)[C@@H]3CC[C@H]2C3)cc2nc(-c3cc4ccc5nc4n3CC(F)(F)CCCc3cncc(F)c3C(=O)N[C@@H]5C)n(C)c12
(B) COc1cc(C(=O)N2CC[C@@H](OC)[C@@H](N)C2)cc2nc(-c3cc4ccc5nc4n3CCCCCc3cccnc3C(=O)N[C@@H]5C)n(C)c12
Prompt: Lab notebook, comparison: A versus B , higher IC50 goes to which? Answer by quoting the chosen item's label.
Response: B

----------
# TESTED_SYSTEM: human PAD4 (Homo sapiens, UniProt Q9UM07)
# Construct: human PAD4 (NM_012387), A2-P663, was PCR amplified; His-SUMO (N, cleaved yes)
# TEST_DETAILS: In vitro PAD4 BAEE biochemical assay
# CONDITION_LABEL: BAEE substrate 3 mM, 5 nM PAD4, 2 mM calcium chloride; geometric mean of multiple experiments
# Source text: In Vitro PAD4 BAEE Biochemical Assay The enzymatic activity of human PAD4 was monitored in a biochemical assay in the presence or absence of compounds using the small peptidyl arginine mimic BAEE (Na-Benzoyl-L-arginine ethyl ester hydrochloride) as substrate. PAD4 activity led to deimination of BAEE and release of ammonia. Levels of ammonia were monitored by using an amine coupling reaction and were indicative of PAD4 enzymatic activity. […]
pIC50: −log10 of the molar value.
OBSERVATION_TYPE: pIC50

(I) COc1cc(C(=O)N2[C@H]3CC[C@@H]2[C@H](N)C3)cc2nc(-c3cc4ccc5cc4n3CCCCCCC(C)(C)C(=O)N[C@@H]5C)n(C)c12
(II) C[C@H]1NC(=O)CCCCCCCn2c(-c3nc4cc(C(=O)N5CCC[C@@H](N)C5)ccn4c3C3CC3)cc3ccc1nc32
(III) COc1cc(C(=O)N2CCC[C@@H](N)C2)cc2nc(-c3cc4ccc5nc4n3C[C@H]3C[C@H]3COCCC(=O)N[C@@H]5C)n(C)c12
Prompt: With the 3 compounds above, produce a list ordered by ascending pIC50. Give me the labels in the order the question wants.
Response: II, III, I
(II: 6.88, III: 7.15, I: 7.48)

----------
# TESTED_SYSTEM: human PAD4 (Homo sapiens)
# Construct: human PAD4 (NM_012387), A2-P663, was PCR amplified; His-SUMO (N, cleaved yes)
# TEST_DETAILS: In vitro PAD4 BAEE biochemical assay
# CONDITION_LABEL: BAEE substrate 3 mM, 5 nM PAD4, 2 mM calcium chloride; geometric mean of multiple experiments
OBSERVATION_TYPE: IC50 (nM)

COMPOUND	TESTED_SYSTEM	IC50 / nM
COc1cc(C(=O)N2CC[C@@H](OC)[C@@H](N)C2)cc2nc(-c3cc4ccc5nc4n3CC(F)(F)CCCC[C@](C)(C(F)(F)F)C(=O)N[C@@H]5C)n(C)c12	human PAD4 (Homo sapiens)	96
COCCO[C@@H]1CCN(C(=O)c2cc(OC)c3c(c2)nc(-c2cc4ccc5nc4n2CCCCC[C@@H]2C[C@H]2C(=O)N[C@@H]5C)n3C)C[C@@H]1N	human PAD4 (Homo sapiens)	76
COc1cc(C(=O)N2[C@H]3CC[C@@H]2[C@H](N)[C@H](OC)C3)cc2nc(-c3cc4ccc5nc4n3CC(F)(F)CCC[C@@H]3C[C@H]3C(=O)N[C@@H]5C)n(C)c12	human PAD4 (Homo sapiens)	23
C[C@H]1NC(=O)c2ccc(Cl)nc2CCCCCn2c(-c3nc4cc(C(=O)N5C[C@H](N)[C@@H]6CC[C@H]5C6)cc(F)c4n3[C@H]3C[C@@H]3F)cc3ccc1nc32	human PAD4 (Homo sapiens)	61
C[C@@H]1[C@H](N)CCCN1C(=O)c1cc(F)c2c(c1)nc(-c1cc3ccc4nc3n1CCCCCc1nc(Cl)ccc1C(=O)N[C@@H]4C)n2C1CC1	human PAD4 (Homo sapiens)	23

(A) COc1cc(C(=O)N2[C@H]3CC[C@@H]2[C@H](N)C3)cc2nc(-c3cc4ccc5nc4n3CCCCCCCCOc3ncccc3-5)n(C)c12
(B) C[C@H]1NC(=O)C(C)(C)CCCCCCn2c(-c3nc4cc(C(=O)N[C@H]5CNCC[C@@H]5F)c(C#N)cc4n3C)cc3ccc1nc32
(C) COc1cc(C(=O)N2CCC[C@@H](N)C2)cc2nc(-c3cc4ccc5cc4n3CCCCCCC(C)(C)C(=O)N[C@@H]5C)n(C)c12
(D) COc1cc(C(=O)N[C@H]2CNCC[C@@H]2F)cc2nc(-c3cc4ccc5nc4n3CC(F)(F)CCCCC(C)(C)C(=O)N[C@@H]5C)n(C)c12
Prompt: List the 4 entries from lowest IC50 to highest IC50 value. Form entry: ranked labels (order as requested).
Response: C, D, A, B

(I) COc1cc(C(=O)N2CC(N)CC(F)(F)C2)cc2nc(-c3cc4ccc5nc4n3CCCCCCC(C)(C)C(=O)N[C@@H]5C)n(C)c12 (stereo partly drawn)
(II) Cc1cc2c(cc1C(=O)N[C@H]1CNCC[C@@H]1F)nc(-c1cc3ccc4nc3n1CC(F)(F)CCC[C@@H]1C[C@H]1C(=O)N[C@@H]4C)n2C
(III) COc1cc(C(=O)N2CC[C@@H](OC)[C@@H](N)C2)cc2nc(-c3cc4ccc5nc4n3CCCCCc3nccnc3C(=O)N[C@@H]5C)n(C)c12
Prompt: Your job: order these 3 records by IC50, ascending. Please list the labels according to the requested order.
Response: II, III, I
